Answer each item with its documented relative viability.
# Test system: EKVX
# procedure text: relative viability (nuclei count vs DMSO), 5 days (fraction); higher = more cells survive
# measurement context: first compound 0.0002 µM

The value of relative viability measured for the compound CC(=O)O[C@@]12CO[C@@H]1C[C@H](O)[C@@]1(C)C(=O)[C@H](O)C3=C(C)[C@@H](OC(=O)[C@H](O)[C@@H](NC(=O)OC(C)(C)C)c4ccccc4)C[C@@](O)([C@@H](OC(=O)c4ccccc4)[C@H]21)C3(C)C [Docetaxel] + COc1cccc2cc(-c3nc([C@H]4CC[C@H](C(=O)O)CC4)n4ncnc(N)c34)[nH]c12 [OSI-027] (partner 0.5 µM) turned out to be 0.672

The value of relative viability measured for the compound CC(=O)O[C@@]12CO[C@@H]1C[C@H](O)[C@@]1(C)C(=O)[C@H](O)C3=C(C)[C@@H](OC(=O)[C@H](O)[C@@H](NC(=O)OC(C)(C)C)c4ccccc4)C[C@@](O)([C@@H](OC(=O)c4ccccc4)[C@H]21)C3(C)C [Docetaxel] + CS(=O)(=O)CCNCc1ccc(-c2ccc3ncnc(Nc4ccc(OCc5cccc(F)c5)c(Cl)c4)c3c2)o1 [Lapatinib] (partner 2 µM) turned out to be 0.212

The value of relative viability measured for the compound CC(=O)O[C@@]12CO[C@@H]1C[C@H](O)[C@@]1(C)C(=O)[C@H](O)C3=C(C)[C@@H](OC(=O)[C@H](O)[C@@H](NC(=O)OC(C)(C)C)c4ccccc4)C[C@@](O)([C@@H](OC(=O)c4ccccc4)[C@H]21)C3(C)C [Docetaxel] + N=C(N)NC(=N)NCCc1ccccc1 [Phenformin] (partner 250 µM) turned out to be 0.264

----------
Answer each item with its documented relative viability.
# Tested on: SW 1573
# procedure text: relative viability (nuclei count vs DMSO), 5 days (fraction); higher = more cells survive
# measurement context: first compound 0.1581 µM
Please respond with just the number, no unit label.

The value of relative viability measured for the molecule COc1cc2nccc(Oc3ccc(NC(=O)Nc4cc(C)on4)c(Cl)c3)c2cc1OC [Tivozanib] + CS(=O)(=O)CCNCc1ccc(-c2ccc3ncnc(Nc4ccc(OCc5cccc(F)c5)c(Cl)c4)c3c2)o1 [Lapatinib] (partner 2 µM) turned out to be 0.856

The value of relative viability measured for the molecule COc1cc2nccc(Oc3ccc(NC(=O)Nc4cc(C)on4)c(Cl)c3)c2cc1OC [Tivozanib] + O=C(CCCCCCC(=O)Nc1ccccc1)NO [Vorinostat] (partner 1 µM) turned out to be 0.506

The value of relative viability measured for the molecule Nc1ccn([C@@H]2O[C@H](CO)[C@@H](O)[C@@H]2O)c(=O)n1 [Cytarabine] + CC(C)C[C@H](NC(=O)[C@H](Cc1ccccc1)NC(=O)c1cnccn1)B(O)O [Bortezomib] (partner 0.002 µM) turned out to be 0.461

The value of relative viability measured for the molecule COc1cc2nccc(Oc3ccc(NC(=O)Nc4cc(C)on4)c(Cl)c3)c2cc1OC [Tivozanib] + CC(=O)Nc1cccc(-n2c(=O)n(C3CC3)c(=O)c3c(Nc4ccc(I)cc4F)n(C)c(=O)c(C)c32)c1 [Trametinib] (partner 0.02 µM) turned out to be 0.457

The value of relative viability measured for the molecule Nc1ccn([C@@H]2O[C@H](CO)[C@@H](O)[C@@H]2O)c(=O)n1 [Cytarabine] + CC(=O)Nc1cccc(-n2c(=O)n(C3CC3)c(=O)c3c(Nc4ccc(I)cc4F)n(C)c(=O)c(C)c32)c1 [Trametinib] (partner 0.02 µM) turned out to be 0.177

The value of relative viability measured for the molecule Nc1ccn([C@@H]2O[C@H](CO)[C@@H](O)[C@@H]2O)c(=O)n1 [Cytarabine] + O=C(c1cc(Cc2n[nH]c(=O)c3ccccc23)ccc1F)N1CCN(C(=O)C2CC2)CC1 [Olaparib] (partner 8 µM) turned out to be 0.166

The value of relative viability measured for the molecule Nc1ccn([C@@H]2O[C@H](CO)[C@@H](O)[C@@H]2O)c(=O)n1 [Cytarabine] + CS(=O)(=O)CCNCc1ccc(-c2ccc3ncnc(Nc4ccc(OCc5cccc(F)c5)c(Cl)c4)c3c2)o1 [Lapatinib] (partner 2 µM) turned out to be 0.606

The value of relative viability measured for the molecule Nc1ccn([C@@H]2O[C@H](CO)[C@@H](O)[C@@H]2O)c(=O)n1 [Cytarabine] + COc1cccc2cc(-c3nc([C@H]4CC[C@H](C(=O)O)CC4)n4ncnc(N)c34)[nH]c12 [OSI-027] (partner 0.5 µM) turned out to be 0.131

The value of relative viability measured for the molecule Nc1ccn([C@@H]2O[C@H](CO)[C@@H](O)[C@@H]2O)c(=O)n1 [Cytarabine] + Cc1nc(Nc2ncc(C(=O)Nc3c(C)cccc3Cl)s2)cc(N2CCN(CCO)CC2)n1 [Dasatinib] (partner 0.075 µM) turned out to be 0.122

----------
# Tested on: HOP-62
# procedure text: relative viability (nuclei count vs DMSO), 5 days (fraction); higher = more cells survive
# measurement context: first compound 15.81 µM
# label = met if relative viability < 0.8 else not met

Ask: Please indicate whether the reported relative viability of O=C(O)CCCCC(CCSCc1ccccc1)SCc1ccccc1 (stereo unspecified) [CPI-613] + CC1(C)CCC(c2ccc(Cl)cc2)=C(CN2CCN(c3ccc(C(=O)NS(=O)(=O)c4ccc(N[C@H](CCN5CCOCC5)CSc5ccccc5)c(S(=O)(=O)C(F)(F)F)c4)cc3)CC2)C1 [Navitoclax] (partner 0.5 µM) is strictly below 0.8.
Reply: not met

Ask: Please indicate whether the reported relative viability of O=C(O)CCCCC(CCSCc1ccccc1)SCc1ccccc1 (stereo unspecified) [CPI-613] + Cc1nc(NC(=O)N2CCC[C@H]2C(N)=O)sc1-c1ccnc(C(C)(C)C(F)(F)F)c1 [Alpelisib] (partner 2 µM) is strictly below 0.8.
Reply: not met

Ask: Please indicate whether the reported relative viability of O=C(O)CCCCC(CCSCc1ccccc1)SCc1ccccc1 (stereo unspecified) [CPI-613] + COc1cc2c(Oc3ccc(NC(=O)C4(C(=O)Nc5ccc(F)cc5)CC4)cc3F)ccnc2cc1OCCCN1CCOCC1 [Foretinib] (partner 0.25 µM) is strictly below 0.8.
Reply: not met

Ask: Please indicate whether the reported relative viability of O=C(O)CCCCC(CCSCc1ccccc1)SCc1ccccc1 (stereo unspecified) [CPI-613] + CCNC(=O)c1noc(-c2cc(C(C)C)c(O)cc2O)c1-c1ccc(CN2CCOCC2)cc1 [Luminespib] (partner 0.01 µM) is strictly below 0.8.
Reply: not met

Ask: Please indicate whether the reported relative viability of O=C(O)CCCCC(CCSCc1ccccc1)SCc1ccccc1 (stereo unspecified) [CPI-613] + N=C(N)NC(=N)NCCc1ccccc1 [Phenformin] (partner 250 µM) is strictly below 0.8.
Reply: met

Ask: Please indicate whether the reported relative viability of O=C(O)CCCCC(CCSCc1ccccc1)SCc1ccccc1 (stereo unspecified) [CPI-613] + Nc1ncn([C@H]2C[C@H](O)[C@@H](CO)O2)c(=O)n1 [Decitabine] (partner 2 µM) is strictly below 0.8.
Reply: met

----------
# Test system: NCI-H520
# procedure text: relative viability (nuclei count vs DMSO), 5 days (fraction); higher = more cells survive
# measurement context: first compound 4 µM
Answer each item with its documented relative viability.
Please respond with just the number, no unit label.

The value of relative viability measured for the compound Cc1sc2c(c1C)C(c1ccc(Cl)cc1)=N[C@@H](CC(=O)OC(C)(C)C)c1nnc(C)n1-2 [JQ1] + CC(C)C[C@H](NC(=O)[C@H](Cc1ccccc1)NC(=O)c1cnccn1)B(O)O [Bortezomib] (partner 0.002 µM) turned out to be 0.136

The value of relative viability measured for the compound Cc1sc2c(c1C)C(c1ccc(Cl)cc1)=N[C@@H](CC(=O)OC(C)(C)C)c1nnc(C)n1-2 [JQ1] + CCNC(=O)c1noc(-c2cc(C(C)C)c(O)cc2O)c1-c1ccc(CN2CCOCC2)cc1 [Luminespib] (partner 0.01 µM) turned out to be 0.229

The value of relative viability measured for the compound Cc1sc2c(c1C)C(c1ccc(Cl)cc1)=N[C@@H](CC(=O)OC(C)(C)C)c1nnc(C)n1-2 [JQ1] + O=C(CCCCCCC(=O)Nc1ccccc1)NO [Vorinostat] (partner 1 µM) turned out to be 0.225

The value of relative viability measured for the compound Cc1sc2c(c1C)C(c1ccc(Cl)cc1)=N[C@@H](CC(=O)OC(C)(C)C)c1nnc(C)n1-2 [JQ1] + O=C(c1cc(Cc2n[nH]c(=O)c3ccccc23)ccc1F)N1CCN(C(=O)C2CC2)CC1 [Olaparib] (partner 8 µM) turned out to be 0.156

----------
# Test system: COR-L 105
# procedure text: relative viability (nuclei count vs DMSO), 5 days (fraction); higher = more cells survive
# measurement context: first compound 1.265 µM
# label = Met if relative viability < 0.3 else Not met

Ask: Please indicate whether the reported relative viability of Cc1sc2c(c1C)C(c1ccc(Cl)cc1)=N[C@@H](CC(=O)OC(C)(C)C)c1nnc(C)n1-2 [JQ1] + CCNC(=O)c1noc(-c2cc(C(C)C)c(O)cc2O)c1-c1ccc(CN2CCOCC2)cc1 [Luminespib] (partner 0.01 µM) is strictly below 0.3.
Reply: Met

Ask: Please indicate whether the reported relative viability of Cc1sc2c(c1C)C(c1ccc(Cl)cc1)=N[C@@H](CC(=O)OC(C)(C)C)c1nnc(C)n1-2 [JQ1] + Nc1ncn([C@H]2C[C@H](O)[C@@H](CO)O2)c(=O)n1 [Decitabine] (partner 2 µM) is strictly below 0.3.
Reply: Not met

Ask: Please indicate whether the reported relative viability of Cc1sc2c(c1C)C(c1ccc(Cl)cc1)=N[C@@H](CC(=O)OC(C)(C)C)c1nnc(C)n1-2 [JQ1] + Cc1cc(Nc2cc(N3CCN(C)CC3)nc(Sc3ccc(NC(=O)C4CC4)cc3)n2)n[nH]1 [Tozasertib] (partner 0.1 µM) is strictly below 0.3.
Reply: Met
